- study-system: AliD (residues 28–652), oligopeptide-binding lipoprotein of the Ami system, without the lipobox segment (Streptococcus pneumoniae)
- assay-info: MST; 20 nM RED-NHS-labelled AliD and unlabelled peptides (7.63x10^-6–0.125 mM) both in solution, PBS, 25°C, 40% LED power, medium MST power, Monolith NT.115; three independent experiments
endpoint: Kd (µM)
Numbers only, in µM.

For the binder shown here, AIQSEKARKHN [Peptide 2 (…)] , give the reported Kd.
14.4
